Sourced from paper PMC4134498

method-notes: Plasma pharmacokinetics of olaparib alone and with PLD
Format: in vivo, patients
condition-parameters: human, plasma, oral
reported-endpoint: Tmax (h)
Unit h implied. Number only.

Look at this molecule and give its reported Tmax. O=C(c1cc(Cc2n[nH]c(=O)c3ccccc23)ccc1F)N1CCN(C(=O)C2CC2)CC1
2.1

###

method-notes: Plasma pharmacokinetics of olaparib alone and with PLD
Type: in vivo, patients
condition-parameters: human, plasma, oral, olaparib Cmax, olaparib 100 mg bid; Day 2+PLD; mean±s.d.
reported-endpoint: Cmax (ng/mL)
Give the quantity in ng/mL, number only.

Returns the measured Cmax for the input molecule. Input: O=C(c1cc(Cc2n[nH]c(=O)c3ccccc23)ccc1F)N1CCN(C(=O)C2CC2)CC1
2200
